# protocol-text: Neutral Red vitality test using J774.A1 cells
# Assay type: cell-based, murine
# assay-context: mouse; J774.A1 murine macrophage cells, 72 hours with substance; vitality reduced to 50% of untreated control
Where a name gives a salt, the structure may show the parent alone.
reported-endpoint: IC50 at 72 h (µg/mL)

Observe how each entry below is paired with its result.
CN(C(=O)C[C@@H](N)CNC(=N)N)C1CNC(NC(N)=O)=NC1=O (stereo partly drawn) [TAN 1057 A,B, reference compound] : 0.25
CN(C(=O)C[C@@H](N)CCCCNC(=N)N)C1CNC(NC(N)=O)=NC1=O (stereo partly drawn) [Example 1, Dihydrochloride] : 3
CN(C(=O)C[C@@H](N)CCCN)C1CNC(NC(N)=O)=NC1=O (stereo partly drawn) [Example 4, Dihydrochloride] : 25
CN(C(=O)C[C@@H](N)CCCCN)C1CNC(NC(N)=O)=NC1=O (stereo partly drawn) [Example 5, Dihydrochloride] : 6
CNC(=N)NCCC[C@H](N)CC(=O)N(C)C1CNC(NC(N)=O)=NC1=O (stereo partly drawn) [Example 6, Dihydrochloride] : 5.5

1: CCNCCC[C@H](N)CC(=O)N(C)C1CNC(NC(N)=O)=NC1=O (stereo partly drawn) [Example 7, Dihydrochloride]
2: CN(C(=O)CC(N)c1cccc(NC(=N)N)c1)C1CNC(NC(N)=O)=NC1=O (stereo not drawn) [Example 2, Dihydrochloride]
Exercise: Hi, I'm comparing two records. Which one has the lower IC50 at 72 h, 1 or 2 ? Give the chosen item's label as your response.
Key: 2
(2: 6 µg/mL, 1: 50 µg/mL)

a: CN(C(=O)C[C@@]1(N)C[C@H]1CCNC(=N)N)C1CNC(NC(N)=O)=NC1=O (stereo partly drawn) [Example 3, Dihydrochloride]
b: CN(C(=O)C[C@@H](N)CCN)C1CNC(NC(N)=O)=NC1=O (stereo partly drawn) [Example 8, Dihydrochloride]
Exercise: Lab note: check whether a or b shows the higher recorded IC50 at 72 h. Give the chosen item's label as your response.
Key: a
